- EXPERIMENTAL DETAILS: modulators of S6 phosphorylation in cells, primary screen, cell-based, A549, cytoblot, luminescence, serum-stimulated (AID 1158);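 note: serum-stimulated A549 lung adenocarcinoma cells; signal is phosphorylated S6 detected by cytoblot immunostaining with HRP secondary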
- RUN PARAMETERS: A549 phospho-S6 cytoblot, 5 h, higher = more signal
Decide by z-score: equal to or exceeding -0.5 means Met, less means Not met.

STRUCTURE STRING	LABEL CLASS
COC(=O)[C@@]1(Cc2ccc(F)cc2)[C@H]2c3cc(C(=O)N(C)C)n(CCc4ccc(O)c(OC)c4)c3C[C@H]2CN1C(=O)c1ccccc1	Not met
CCCCCCc1nc(C2CC2)cc2c1[Si](C(C)C)(C(C)C)O[C@H]2c1ccccc1	Not met
COCCOC(=O)N1C(=O)[C@@]2(c3cc(C#Cc4ccc(OC)cc4)ccc31)[C@H](C(=O)Nc1nc3ccccc3s1)[C@H]1C(=O)O[C@H](c3ccccc3)[C@H](c3ccccc3)N1[C@@H]2c1ccc(OCCO)cc1	Met
COc1ccc(-c2cc3c(c(CCc4ccccc4)n2)[Si](C(C)C)(C(C)C)OC3)cn1	Met
[N-]=[N+]=NCc1ccccc1C[C@@]1(C(=O)NCc2ccccc2)N=C(c2ccc(OCCCO)cc2)O[C@@H]1c1ccccc1N=[N+]=[N-]	Met
COCCOC(=O)N1C(=O)[C@@]2(c3cc(C#CC4=CCCCC4)ccc31)[C@H](c1ccc(O)cc1)N1[C@H](c3ccccc3)[C@H](c3ccccc3)OC(=O)[C@H]1[C@@H]2C(=O)N1CCN(c2ncccn2)CC1	Met

* * *

- EXPERIMENTAL DETAILS: binders of probe aHhip on microarray, primary screen, stem cell growth factor project, biochemical, small-molecule microarray, fluorescence 635/667 (AID 1087);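 note: score merges spot fluorescence at 667nm with spot signal to noise ratio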
- RUN PARAMETERS: higher = more signal
# binarize composite z-score: threshold -0.2 inclusive, high side true (1), low side false (0)

MOLECULE	LABEL CLASS
C#CCN([C@@H](Cc1ccc(O)cc1)C(=O)OC)[C@@H](/C=C/C1CC1)[C@H](O)Cc1ccccc1	false (0)
C[C@@H]1NC(=O)[C@@]23C(=O)N[C@@H](Cc4ccccc4)C2[C@H](C)[C@@]2(C)O[C@H]2C3/C=C/C/C=C\CNC(=O)[C@@H]2CCCN2C1=O (some centres undefined)	false (0)
COC(=O)[C@@]1(Cc2ccccc2N=[N+]=[N-])N=C(c2ccc(OCCCO)cc2)O[C@H]1c1ccccc1N=[N+]=[N-]	true (1)
O=C1NC(=O)C2C1C=CC(C(O)c1ccco1)N2Nc1ccccn1 (centres undefined)	true (1)
COC(=O)C(CC#Cc1ccc2c(c1)[C@]1(C(=O)N2)[C@H](c2ccccc2OCCO)N2[C@H](c3ccccc3)[C@H](c3ccccc3)OC(=O)[C@H]2[C@@H]1C(=O)NC[C@H](O)c1ccccc1)C(=O)OC	false (0)
CN(C)CCCNC(=O)[C@@]1(c2ccc([N+](=O)[O-])cc2)CC(=O)N(CC23CC4CC(CC(C4)C2)C3)[C@@H]1c1ccc(CO)cc1I	true (1)
C[N+](C)(C)CCCC[C@@H]1NC(=O)[C@H]2C[C@@H](C(=O)NCCCCCCN)[C@@H](c3ccc(O)cc3)N2C1=O	true (1)
COCCCNC(=O)[C@@]1(Cc2ccccc2N=[N+]=[N-])N=C(c2ccc(OCCCO)cc2)O[C@H]1c1ccccc1	true (1)
CCCCCCc1nc(C2CC2)cc2c1[Si](C(C)C)(C(C)C)O[C@H]2c1ccccc1	true (1)

* * *

- EXPERIMENTAL DETAILS: E. coli acrAB mutant growth effects, primary screen, E. coli filamentation inducers, strain DRC39, OD650, 48 h (AID 1179);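 note: screen aims at cell division blockers that make cells filament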
- RUN PARAMETERS: E. coli DRC39 delta-acrAB growth, higher = more signal, called active from +8 up or from −8 down
Heads up, the class ranges for z-score are class 0 (below -0.2), class 1 (-0.2 to below 0.3), class 2 (0.3 or more)

COMPOUND	LABEL CLASS
O=C(NCC(F)(F)F)[C@@H]1c2ccccc2C(=O)N(Cc2ccccc2C(F)(F)F)[C@H]1c1ccc(CO)cc1	class 1
COCCCNC(=O)[C@@]1(Cc2ccccc2N=[N+]=[N-])N=C(c2ccc(OCCCO)cc2)O[C@H]1c1ccccc1	class 0
O=C(NCCCCCNC(=O)/C(Cc1ccccc1)=N/O)OCc1ccccc1	class 2
NC(=O)N1C(=O)C2C(C1=O)C1C=C(CCCO)C2C(c2cccs2)N1Cc1cccc(OC(F)(F)F)c1 (stereo unspecified)	class 0
[N-]=[N+]=NCc1ccccc1C[C@@]1(C(=O)N2CCCCC2)N=C(c2ccc(OCCCO)cc2)O[C@@H]1c1ccccc1	class 2
C=CCN1Cc2ccccc2[C@H]2OC(c3ccc(OCCCO)cc3)=N[C@@]2(CC=C)C1=O	class 2
CCCNC(=O)[C@@H]1c2ccccc2C(=O)N(C(C)C)[C@H]1c1ccc(CO)cc1	class 2
CCCCCCc1nc(C2CC2)cc2c1[Si](C(C)C)(C(C)C)O[C@H]2c1ccccc1	class 0
CN(C)C(=O)[C@@]1(Cc2ccccc2CN=[N+]=[N-])N=C(c2ccc(OCCCO)cc2)O[C@H]1c1ccccc1CN=[N+]=[N-]	class 0
OCC1CC(c2ccccc2)=NO1 (stereo unspecified)	class 1
CC(C)N1C(=O)c2ccccc2[C@@H](C(=O)NC2CC2)[C@@H]1c1ccc(CO)cc1	class 0
CN1C(=O)C2C=CC(C(O)COCc3ccccc3)N(N(c3ccccc3)c3ccccc3)C2C1=O (stereo unspecified)	class 1
C=C(COC)C(=O)CC[C@@H](OC(=O)c1cccnc1)c1ccc(OCCO)cc1	class 2
C=C(/C(=C/C[C@H](OC(=O)c1ccncc1)c1ccc(CO)o1)c1cc(C(=O)OC)ccc1OC)C(C)C	class 0
CN(C)CCCNC(=O)[C@@]1(C)c2ccccc2C(=O)N(Cc2ccccc2)[C@H]1c1ccc(CO)cc1	class 1
C=CCC(OC(C)=O)[C@@H]1[C@@H](N(Cc2cc3ccccc3o2)C(=O)Cc2ccc(F)cc2)c2cc(OCCCO)ccc2N1C(=O)c1ccc2ccccc2c1 (stereo partly specified)	class 0
[N-]=[N+]=NCc1ccccc1C[C@]1(C(N)=O)N=C(c2ccc(OCCCO)cc2)O[C@H]1c1ccccc1	class 2
COCCOC(=O)N1C(=O)[C@@]2(c3ccccc31)[C@H](C(=O)N1CCN(c3ncccn3)CC1)[C@H]1C(=O)O[C@H](c3ccccc3)[C@H](c3ccccc3)N1[C@@H]2c1ccc(O)cc1	class 1
COCCOC(=O)N1C(=O)[C@@]2(c3cc(C#Cc4ccc(OC)cc4)ccc31)[C@H](c1ccccc1OCCO)N1[C@H](c3ccccc3)[C@H](c3ccccc3)OC(=O)[C@H]1[C@@H]2C(=O)N1CCCCCCC1	class 1
O=C1O[C@@H](c2ccccc2)[C@@H](c2ccccc2)N2[C@@H](c3ccccc3OCCO)[C@]3(C(=O)Nc4ccc(C#CCCO)cc43)[C@@H](C(=O)N3CCCCCCC3)[C@H]12	class 2
Cc1ccc(S[C@]2(C(=O)NCCCN(C)C)CC(=O)N(C3CCCCC3)[C@@H]2c2ccc(CO)cc2)cc1	class 2
COC(=O)[C@@]1(Cc2ccccc2)[C@H]2c3cc(C(=O)N(C)C)n(Cc4c(CO)[nH]cc(C)c4=O)c3C[C@H]2CN1C(=O)c1ccccc1	class 1
O[C@@H](Cc1ccccc1)[C@@H](/C=C/C1CC1)N(CC#Cc1ccccc1)Cc1cccc(Cl)c1	class 2
C=C(C)c1cc2c(c(CCCCCC)n1)[Si](C(C)C)(C(C)C)OC2	class 1
CCOC(=O)C1=CC[C@@H](c2ccccc2C(F)(F)F)N(S(=O)(=O)c2ccc(C)cc2)[C@H]1c1ccc(C#N)cc1	class 2
CC(C)(C)OC(=O)CC[C@]1(C(=O)NCc2ccccc2)N=C(c2ccc(OCCCO)cc2)O[C@H]1c1ccccc1CN=[N+]=[N-]	class 2
CCOC(=O)C[C@H]1[C@H](OC(=O)c2cc3ccccc3oc2=O)[C@@H](NC(=O)c2ccc(-c3ccccc3)cc2)c2cc(OCCCO)ccc2N1C(=O)c1ccc2ccccc2n1	class 1
NCCCCCNC(=O)[C@@H]1C[C@@H]2C(=O)NCC(=O)N2[C@@H]1c1cccc(OCCO)c1	class 0
COc1cc(OC)c(C(O)C2C=CC3C(=O)N(c4ccccc4)C(=O)C3N2Nc2ccccc2)cc1Br (stereo unspecified)	class 1
NC(=O)NCC#Cc1ccc2c(c1)[C@]1(C(=O)N2)[C@H](C(=O)O)[C@H]2C(=O)O[C@H](c3ccccc3)[C@H](c3ccccc3)N2[C@@H]1c1ccc(OCCO)cc1	class 0
CC(C)N1C(=O)C[C@@](C(=O)NCCCN(C)C)(c2ccc([N+](=O)[O-])cc2)[C@H]1c1ccc(CO)cc1	class 0

* * *

- EXPERIMENTAL DETAILS: small-molecule microarray binders of probe aCHRDL2, primary screen, biochemical, biotinylated probe, 635/667 nm fluorescence (AID 1100)
- RUN PARAMETERS: higher = more signal
Collected composite z-score values appear next to each entry.
MEASURE NAME: composite z-score

COMPOUND	RESULT
CCOC(=O)C[C@H]1[C@H](OC(=O)c2cc3ccccc3oc2=O)[C@@H](NC(=O)c2ccc(-c3ccccc3)cc2)c2cc(OCCCO)ccc2N1C(=O)c1ccc2ccccc2n1	-0.386
COc1ccccc1CN1C(=O)c2ccccc2[C@](Cc2ccccc2I)(C(=O)NCC(F)(F)F)[C@@H]1c1ccc(CO)cc1	0.854
CCOC(=O)C1=CC[C@@H](c2ccc(OCc3ccccc3)c(OC)c2)N(S(=O)(=O)c2ccc(C)cc2)[C@H]1c1ccc(SC)cc1	1.04
Cc1ccc(S[C@]2(C(=O)O)CC(=O)N(Cc3cc(C(F)(F)F)cc(C(F)(F)F)c3)[C@@H]2c2ccc(CO)cc2)cc1	1.14
CCOC(=O)C[C@H]1[C@H](OC(=O)c2ccccc2-c2ccccc2)[C@@H](NC(=O)c2ccc(-c3ccccc3)cc2)c2cc(OCCCO)ccc2N1C(=O)c1ccc2ccccc2n1	-0.0904
COc1ccc([Si](C)(C)[C@@H]2[C@@H](CC(=O)N(CCO)Cc3ccccc3)O[C@]3(C(=O)N(c4ccccc4)c4ccccc43)[C@H]2C)cc1	-0.426
COC(=O)C1=CC(CCCO)=CC(C2CC2)N(C)C=C1C(=O)OC (centres undefined)	0.41
COC(=O)[C@@]1(Cc2ccccc2)[C@H]2c3cc(C(=O)N(C)C)n(CCc4ccc(O)c(OC)c4)c3C[C@H]2CN1C(=O)c1ccccc1	0.379
COCC1=C2[C@@H](CCc3ccccc3)OB(O)C[C@@H]2[C@@H]2C(=O)C=CC(=O)[C@@H]2C1	-0.0343
CC(C)(C)N1CC=CC23O[C@@H]4C=CCCOC(=O)C4[C@H]2C(=O)N(CCO)[C@@H]3C1=O (some centres undefined)	-0.254
COc1cc2c(cc1OC)CN(C(=O)[C@@H]1[C@H]3C(=O)O[C@H](c4ccccc4)[C@H](c4ccccc4)N3[C@H](c3ccc(OCCO)cc3)[C@@]13C(=O)Nc1ccccc13)CC2	0.0159
CN(C)CCCNC(=O)[C@@]1(C)c2ccccc2C(=O)N(Cc2ccccc2)[C@H]1c1ccc(CO)cc1	0.683
O=C1NC(=O)C2C1C=CC(C(O)CCc1ccccc1)N2Nc1ccc(Cl)cc1Cl (centres undefined)	1.29
CC(C)N1C(=O)C[C@@](C(=O)NCCCN(C)C)(c2ccc([N+](=O)[O-])cc2)[C@H]1c1ccc(CO)cc1	0.692
C=CCN1Cc2ccccc2[C@H]2OC(c3ccc(OCCCO)cc3)=N[C@@]2(CC=C)C1=O	1.09
COC(=O)[C@@]1(Cc2ccccc2)[C@@H]2C(=CC(=O)[C@H]2CC(=O)C(=O)N(C)C)CN1C(=O)c1ccccc1	1.17
CO[C@]12C=C(Br)[C@@H](C[C@@H]1c1cccc(C)c1)[C@@]1(CO1)C2=O	-0.284
COC(=O)c1c(CC[C@@H](CO)NC(=O)N2CCC[C@H]2Cn2cc(Cc3ccccc3)nn2)oc(C(C)=O)c1C(=O)OC	-0.553
COC(=O)c1cn(C[C@@H](Cc2ccccc2)NC(=O)N[C@H](CO)CCc2oc(C(C)=O)c(C(=O)OC)c2C(=O)OC)nn1	-0.255
C[C@@H]1NC(=O)[C@@]23C(=O)N[C@@H](Cc4ccccc4)C2[C@H](C)[C@@]2(C)O[C@H]2C3/C=C/C/C=C\CNC(=O)[C@@H]2CCCN2C1=O (some centres undefined)	-0.339
COc1ccc([Si](C)(C)[C@H]2[C@H](CCn3cc([C@H](O)c4ccccc4)nn3)O[C@@]3(C(=O)N(Cc4ccc(N5C(=O)c6cccc7cccc5c67)cc4)c4ccccc43)[C@@H]2C)cc1	0.538
O=C1O[C@@H](c2ccccc2)[C@@H](c2ccccc2)N2[C@@H](c3ccc(O)cc3)[C@]3(C(=O)Nc4ccc(C#CC5(O)CCCCCC5)cc43)[C@@H](C(=O)NC[C@H](O)c3ccccc3)[C@H]12	0.467
COC(=O)[C@@]1(Cc2ccccc2)[C@H]2c3cc(C(=O)N(C)C)n(CCN4CNCC4=O)c3C[C@H]2CN1C(=O)c1ccccc1	1.31
COC(=O)[C@@]1(Cc2ccc(F)cc2)[C@H]2c3cc(C(=O)N4CCCC4)n(CCN4CNCC4=O)c3C[C@H]2CN1C(=O)c1ccccc1	0.82
O[C@@H](Cc1ccccc1)[C@@H](/C=C/C1CC1)N(CC#Cc1ccccc1)Cc1cccc(Cl)c1	1.34
COc1cc(OC)c(C(O)C2C=CC3C(=O)N(C)C(=O)C3N2NC(=O)OC(C)(C)C)cc1Br (centres undefined)	1.15
COCCCNC(=O)[C@@]1(Cc2ccccc2N=[N+]=[N-])COC(c2ccc(OCCCO)cc2)=N1	1.17
C=C[C@@H](COC(C)=O)N(C(=O)OC(C)(C)C)S(=O)(=O)c1ccc(Br)cc1	-0.152
COCCOC(=O)N1C(=O)[C@@]2(c3cc(C#CCCO)ccc31)[C@H](C(=O)Nc1nc3ccccc3s1)[C@H]1C(=O)O[C@H](c3ccccc3)[C@H](c3ccccc3)N1[C@@H]2c1ccccc1OCCO	0.411

These data points were gathered from PubChem BioAssay.
